Target: UniProt P08246
Sequence (P08246 30-267): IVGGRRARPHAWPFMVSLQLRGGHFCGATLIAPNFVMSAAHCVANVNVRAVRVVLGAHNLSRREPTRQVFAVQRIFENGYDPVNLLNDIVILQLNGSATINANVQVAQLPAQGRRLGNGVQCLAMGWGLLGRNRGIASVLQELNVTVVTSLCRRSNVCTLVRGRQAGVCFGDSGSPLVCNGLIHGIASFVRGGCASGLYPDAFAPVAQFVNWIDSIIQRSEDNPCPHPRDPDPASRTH
pKi: −log10 of the molar value. Counter-ions that a name gives are not always drawn.
pKi of 8 or higher: criterion met. Under 8: criterion not met.

Solved entries:
compound	testedTarget	labelClass
CC(C)C1NS(=O)(=O)N(COC(=O)c2c(Cl)cccc2Cl)C1=O (stereo not shown)	UniProt P08246	criterion not met
CCCC1(C)C(=O)N(COC(=O)c2c(Cl)cccc2Cl)S(=O)(=O)N1C (stereo not shown)	UniProt P08246	criterion not met
CC(C)CCC1C(=O)N(COC(=O)c2c(Cl)ccc(OCCN3CCCC3)c2Cl)S(=O)(=O)N1C (stereo not shown) [9(c), hydrochloride]	UniProt P08246	criterion met
O=C(OCN1C(=O)C2CCCCN2S1(=O)=O)c1c(Cl)cccc1Cl (stereo not shown)	UniProt P08246	criterion not met
CCCC1C(=O)N(COC(=O)c2c(Cl)ccc(OCCN3CCOCC3)c2Cl)S(=O)(=O)N1CC (stereo not shown)	UniProt P08246	criterion met

(Q) Exam item: decide whether the reported pKi for CN1C(Cc2ccccc2)C(=O)N(COC(=O)c2c(Cl)cccc2Cl)S1(=O)=O (stereo not shown) is at least 8.
(A) criterion met

(Q) Exam item: decide whether the reported pKi for CC(C)C1C(=O)N(COC(=O)c2c(Cl)cccc2Cl)S(=O)(=O)N1C (stereo not shown) is at least 8.
(A) criterion not met

(Q) Exam item: decide whether the reported pKi for CCCC1C(=O)N(COC(=O)c2c(Cl)cccc2Cl)S(=O)(=O)N1CC (stereo not shown) [5(e)] is at least 8.
(A) criterion met

(Q) Exam item: decide whether the reported pKi for O=C(OCN1C(=O)C2C3CCC(C3)N2S1(=O)=O)c1c(Cl)cccc1Cl (stereo not shown) is at least 8.
(A) criterion not met
